Target: human TLR8 (Homo sapiens, UniProt Q9NR97)
Construct: host or cells: HEK-Blue 293 cells expressing human TLR8
Sequence (Q9NR97 27-1041): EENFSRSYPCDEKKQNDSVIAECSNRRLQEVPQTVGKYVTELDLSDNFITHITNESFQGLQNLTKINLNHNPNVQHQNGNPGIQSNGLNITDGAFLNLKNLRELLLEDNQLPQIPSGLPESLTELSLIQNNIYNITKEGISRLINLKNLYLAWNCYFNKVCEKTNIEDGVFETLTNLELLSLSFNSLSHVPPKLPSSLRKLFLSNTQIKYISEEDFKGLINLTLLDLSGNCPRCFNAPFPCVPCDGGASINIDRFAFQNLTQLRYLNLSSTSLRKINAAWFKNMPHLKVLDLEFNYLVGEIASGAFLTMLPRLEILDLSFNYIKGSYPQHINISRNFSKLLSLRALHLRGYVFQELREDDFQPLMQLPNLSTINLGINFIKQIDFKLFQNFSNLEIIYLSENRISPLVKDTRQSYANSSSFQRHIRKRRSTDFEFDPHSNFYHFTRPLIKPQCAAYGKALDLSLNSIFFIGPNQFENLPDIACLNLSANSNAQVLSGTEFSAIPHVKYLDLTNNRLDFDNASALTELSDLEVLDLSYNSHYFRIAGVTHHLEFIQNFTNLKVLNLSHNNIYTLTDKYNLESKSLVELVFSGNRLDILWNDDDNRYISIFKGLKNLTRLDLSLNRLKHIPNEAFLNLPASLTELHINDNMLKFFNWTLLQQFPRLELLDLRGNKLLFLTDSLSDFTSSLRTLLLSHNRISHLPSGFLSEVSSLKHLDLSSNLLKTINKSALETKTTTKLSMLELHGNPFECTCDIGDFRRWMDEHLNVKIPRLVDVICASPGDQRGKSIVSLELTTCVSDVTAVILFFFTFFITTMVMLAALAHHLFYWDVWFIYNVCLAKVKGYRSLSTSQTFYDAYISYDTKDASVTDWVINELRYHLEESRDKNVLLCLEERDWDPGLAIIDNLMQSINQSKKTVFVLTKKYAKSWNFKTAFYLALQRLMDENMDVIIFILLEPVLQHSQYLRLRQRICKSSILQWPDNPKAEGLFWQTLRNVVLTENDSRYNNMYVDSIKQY
Assay: Cell-based TLR 7/8 assay, HEK-Blue TLR8 cells (SEAP reporter)
Settings: based on Compound concentration only; Compounds formulated as SNEs; read-out: huTLR8 EC50 (converted)
measured_endpoint: EC50 (µM)

Per the records, this compound ( CCCCCCCCCCCCCCCCCC(=O)NCCCNC(=O)C1CCN(c2ccc(Cn3cc4nc(N)nc(NCCCC)c4n3)c(OC)c2)CC1 ) has EC50 equal to 54

[1] CCCCCCCCCCCCCCCCCC(=O)NCCCCC(=O)N1CC(c2ccc(Cn3cc4nc(N)nc(NCCCC)c4n3)c(OC)c2)C1
[2] CCCCCCCCCCCCCCCCCC(=O)NCCCC(=O)N(C)Cc1cc(OC)c(Cn2cc3nc(N)nc(NCCCC)c3n2)c(OC)c1
Input: Please indicate which has the smaller reported EC50: 1 , or 2 . Please respond with the label that marks your chosen entry.
Output: 2
(2: 0.0932 µM, 1: 3.39 µM)

###

Molecular target: human TLR7 (Homo sapiens)
Construct: host or cells: HEK-Blue 293 cells expressing human TLR7
Sequence (Q9NYK1 27-1049): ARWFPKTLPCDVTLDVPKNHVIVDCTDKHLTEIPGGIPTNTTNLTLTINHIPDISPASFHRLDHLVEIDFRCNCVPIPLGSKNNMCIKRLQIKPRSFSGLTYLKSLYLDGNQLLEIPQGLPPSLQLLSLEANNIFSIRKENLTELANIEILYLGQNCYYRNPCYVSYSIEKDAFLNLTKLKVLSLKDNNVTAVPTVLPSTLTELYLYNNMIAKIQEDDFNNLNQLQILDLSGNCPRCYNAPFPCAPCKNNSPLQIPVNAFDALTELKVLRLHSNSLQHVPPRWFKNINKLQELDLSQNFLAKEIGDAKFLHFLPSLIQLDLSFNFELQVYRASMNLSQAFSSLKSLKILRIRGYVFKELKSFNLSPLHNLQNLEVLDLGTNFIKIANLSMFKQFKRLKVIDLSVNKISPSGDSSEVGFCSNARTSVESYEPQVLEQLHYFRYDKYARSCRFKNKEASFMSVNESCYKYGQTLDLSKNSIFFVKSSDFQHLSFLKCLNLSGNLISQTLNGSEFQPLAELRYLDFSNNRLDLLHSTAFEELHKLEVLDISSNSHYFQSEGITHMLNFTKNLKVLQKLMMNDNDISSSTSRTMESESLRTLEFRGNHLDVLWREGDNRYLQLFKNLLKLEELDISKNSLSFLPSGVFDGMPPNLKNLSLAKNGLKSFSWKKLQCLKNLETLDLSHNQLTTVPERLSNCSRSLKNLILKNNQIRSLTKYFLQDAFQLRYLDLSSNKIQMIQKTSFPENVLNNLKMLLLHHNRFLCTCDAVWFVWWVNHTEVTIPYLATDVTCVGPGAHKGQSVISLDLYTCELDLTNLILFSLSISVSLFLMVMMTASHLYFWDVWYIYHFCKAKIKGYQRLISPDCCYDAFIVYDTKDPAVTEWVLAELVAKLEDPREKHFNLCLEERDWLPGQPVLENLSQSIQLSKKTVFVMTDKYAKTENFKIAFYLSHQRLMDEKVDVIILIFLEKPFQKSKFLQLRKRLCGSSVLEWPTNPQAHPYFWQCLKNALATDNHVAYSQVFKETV
Experiment: Cell-based TLR 7/8 assay, HEK-Blue TLR7 cells (SEAP reporter)
Settings: based on Compound concentration only; Compounds formulated as SNEs; read-out: huTLR7 EC50 (converted)
From the text: HEK-Blue™ TLR7 and TLR8 cells (InvivoGen) were designed to assess the stimulation of TLR7 and TLR8 by monitoring the activation of NF-κB and AP-1. […] The reporter gene, NF-Kb, induces the production of secreted embryonic alkaline phosphatase (SEAP) when stimulated and can be monitored using the vendor supplied SEAP detection kit. SEAP colorimetric changes were read at an absorbance of 640 nm using a SpectroMax Stakmax plate reader. […]
measured_endpoint: EC50 (µM)

# compound CCCCCCCCCCCCCCCCCC(=O)NCCCC(=O)N(C)Cc1cc(OC)c(Cn2cc3nc(N)nc(NCCCC)c3n2)c(OC)c1 ; its EC50 = 0.639

[I] CCCCCCCCCCCCCCCCCC(=O)NCCCC(C)(C)C(=O)N1CCN(c2ccc(Cn3cc4nc(N)nc(NCCCC)c4n3)c(OC)c2)CC1
[II] CCCCCCCCCCCCCCCCCC(=O)NCCCCC(=O)N1CCN(c2cc(OC)c(Cn3cc4nc(N)nc(N[C@H](CO)CCC)c4n3)c(OC)c2)CC1
[III] CCCCCCCCCCCCCCCCCC(=O)NCCCCN(C)Cc1cc(OC)c(Cn2cc3nc(N)nc(NCCCC)c3n2)c(OC)c1
Input: Write the entries in order, lowest recorded EC50 first. Would you mind listing the labels in the order asked for?
Output: III, II, I
(III: 4.95 µM, II: 7.53 µM, I: 135 µM)

[a] CCCCCCCCCCCCCCCCCC(=O)NC1CC(CC(=O)N2CCN(c3ccc(Cn4cc5nc(N)nc(NCCCC)c5n4)c(OC)c3)CC2)C1 (stereo not drawn)
[b] CCCCCCCCCCCCCCCCCC(=O)NCCCOC(=O)N1CCN(c2ccc(Cn3cc4nc(N)nc(NCCCC)c4n3)c(OC)c2)CC1
Input: Quick one: lower EC50, a or b ? Your answer should be the label attached to the chosen record.
Output: b

[I] CCCCCCCCCCCCCCCCNC(=O)[C@H]1C[C@@H](CC(=O)N2CCN(c3ccc(Cn4cc5nc(N)nc(NCCCC)c5n4)c(OC)c3)CC2)C1
[II] CCCCCCCCCCCCCC(=O)NCCCCC(=O)N1CCN(c2ccc(Cn3cc4nc(N)nc(NCCCC)c4n3)c(OC)c2)CC1
[III] CCCCCCCCCCCCCCCCCC(=O)NCCCCC(=O)N1CCCN(c2ccc(Cn3cc4nc(N)nc(NCCCC)c4n3)c(OC)c2)CC1
Input: Endpoint returns the given compounds ordered by ascending EC50. Ranked list of labels, please, in the requested order.
Output: II, III, I

[I] CCCCCCCC/C=C\CCCCCCCC(=O)NCCCCN(C)Cc1cc(OC)c(Cn2cc3nc(N)nc(NCCCC)c3n2)c(OC)c1
[II] CCCCC/C=C\C/C=C\CCCCCCCC(=O)NCCCCN(C)Cc1cc(OC)c(Cn2cc3nc(N)nc(NCCCC)c3n2)c(OC)c1
[III] CCCCCCCC/C=C\CCCCCCCC(=O)NCCCCC(=O)N1CCN(c2ccc(Cn3cc4nc(N)nc(NCCCC)c4n3)c(OC)c2)CC1
[IV] CCCCCCCCCCCCCCCCCC(=O)NCCCCC(=O)N1CCN(c2ccc(Cn3cc4nc(N)nc(NCCCC)c4n3)c(OC)c2)CC1
Input: Please list the entries, largest EC50 first. In your reply, arrange the labels in the requested order.
Output: IV, I, II, III
